Origin of measurements: patent US20230381146A1

Each item that follows carries a reported IC50.
# TESTED_SYSTEM: PAD4 (Homo sapiens)

Some molecules with recorded IC50:
N=C(CF)NCCC[C@H](NC(=O)c1cccc(N2CCCC2)c1)c1ncc(-c2ccccc2)o1 :: 200 to 500 nM
COc1ccc(OCCCNC(=O)CCCC(=O)NCCCOCCOCCOCCCNC(=O)CCCC[C@@H]2SC[C@@H]3NC(=O)N[C@@H]32)cc1C(=O)N[C@@H](CCCNC(=N)CF)c1ncc(-c2cccc(Cl)c2)o1 :: > 500 nM

With those in mind, consider the next molecule.
Requested field: IC50. Item: `COc1cccc(OC)c1C(=O)N[C@@H](CCCNC(=N)CF)c1nnc(-c2ccc(Cl)cc2)o1`
> 500 nM

###

# TESTED_SYSTEM: PAD4 (Homo sapiens, UniProt Q9UM07)
# Sequence (Q9UM07 whole entry): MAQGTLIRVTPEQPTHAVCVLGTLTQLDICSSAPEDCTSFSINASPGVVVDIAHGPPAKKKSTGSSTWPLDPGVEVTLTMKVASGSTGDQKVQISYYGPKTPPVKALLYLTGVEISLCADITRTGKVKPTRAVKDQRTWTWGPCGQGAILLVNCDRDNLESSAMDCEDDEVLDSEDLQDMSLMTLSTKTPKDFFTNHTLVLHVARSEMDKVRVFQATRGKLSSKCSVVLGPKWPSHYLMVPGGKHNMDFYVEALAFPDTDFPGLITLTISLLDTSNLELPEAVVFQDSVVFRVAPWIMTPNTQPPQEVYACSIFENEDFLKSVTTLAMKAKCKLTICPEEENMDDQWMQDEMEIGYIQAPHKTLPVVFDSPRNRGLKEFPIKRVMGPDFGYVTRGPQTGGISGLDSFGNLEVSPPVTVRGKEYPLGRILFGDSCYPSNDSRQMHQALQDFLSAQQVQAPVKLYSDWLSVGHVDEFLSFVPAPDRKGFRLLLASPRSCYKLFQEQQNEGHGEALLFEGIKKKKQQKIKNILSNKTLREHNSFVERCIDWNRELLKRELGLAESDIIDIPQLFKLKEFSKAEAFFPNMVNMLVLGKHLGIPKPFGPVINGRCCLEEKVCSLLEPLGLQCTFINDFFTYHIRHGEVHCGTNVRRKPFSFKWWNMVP
pIC50: −log10 of the molar value.
RECORDED_METRIC: pIC50

Some molecules with recorded pIC50:
COc1cccc(Cl)c1C(=O)N[C@@H](CCCNC(=N)CF)c1ncc(-c2ccc(F)cc2)o1 :: > 6.70
N=C(CF)NCCC[C@H](NC(=O)c1cccc(-c2cccc(Cl)c2)c1)c1ncc(-c2ccccc2)o1 :: 6.30 to 6.70
COc1cccc(Cl)c1C(=O)N[C@@H](CCCNC(=N)CF)c1ncc(-c2cccc(C)c2)o1 :: 6.30 to 6.70

Requested field: pIC50. Item: `CN(C)c1ccc2cc(C(=O)N[C@@H](CCCNC(=N)CF)c3ncc(-c4cccc(F)c4)o3)ccc2c1`
< 6.30

What about this molecule? `COc1cccc(Cl)c1C(=O)N[C@@H](CCCNC(=N)CF)c1ncc(-c2cccc(NC(=O)CCCNC(=O)CCCC[C@@H]3SC[C@@H]4NC(=O)N[C@@H]43)c2)o1`
6.30 to 6.70

What about this molecule? `COc1cccc(OC)c1C(=O)N[C@@H](CCCNC(=N)CF)c1ncc(-c2ccc(Cl)cc2)o1`
6.30 to 6.70

What about this molecule? `COc1cccc(Cl)c1C(=O)N[C@@H](CCCNC(=N)CF)c1ncc(-c2cccc(C(F)(F)F)c2)o1`
< 6.30

What about this molecule? `COc1cc2c(OC)cccc2cc1C(=O)N[C@@H](CCCNC(=N)CF)c1ncc(C2CCCC2)o1`
6.30 to 6.70

What about this molecule? `COc1ccc(-c2cccc(C(=O)N[C@@H](CCCNC(=N)CF)c3ncc(-c4ccccc4)o3)c2)cc1`
6.30 to 6.70

What about this molecule? `COc1ccc(N2CCOCC2)cc1C(=O)N[C@@H](CCCNC(=N)CF)c1ncc(-c2ccccc2)o1`
< 6.30

###

# IC50 measurements, system: PAD4 (Homo sapiens)

Requested field: IC50. Item: `COc1cccc(Cl)c1C(=O)N[C@@H](CCCNC(=N)CF)c1ncc(-c2cc(F)cc(F)c2)o1`
200 to 500 nM

What about this compound? `CN(C)c1ccc2cc(C(=O)N[C@@H](CCCNC(=N)CF)c3ncc(-c4ccccc4)o3)ccc2c1`
200 to 500 nM

What about this compound? `COc1cc2ccccc2cc1C(=O)N[C@@H](CCCNC(=N)CF)c1ncc(-c2ccccc2)o1`
< 200 nM

What about this compound? `COc1cccc(Cl)c1C(=O)N[C@@H](CCCNC(=N)CF)c1ncc(-c2ccc(N(C)C)cc2)o1`
> 500 nM
